Recorded ratio to parent values for a group of variants are listed next.
B1: H2-Kb / B13 (parent)
chain 1: AQKVTQTQTSISVMEKTTVTMDCVYETQDSSYFLFWYKQTASGEIVFLIRQDSYKKENATVGHYSLNFQKPKSSIGLIITATQIEDSAVYFCAMREGTGGYKVVFGSGTRLLVSP
chain 2: EAAVTQSPRNKVTVTGGNVTLSCRQTNSHNYMYWYRQDTGHGLRLIHYSYGAGNLQIGDVPDGYKATRTTQEDFFLLLELASPSQTSLYFCASSDGTGHEQYFGPGTRLTVL
chain 3: not shown
chain 4: IQKTPQIQVYSRHPPENGKPNILNCYVTQFHPPHIEIQMLKNGKKIPKVEMSDMSFSKDWSFYILAHTEFTPTETDTYACRVKHDSMAEPKTVYWDRDM
chain 5: SIINFEKL

Variants of: B1
Assay: % of reporter cells activated (NFAT-GFP), raw; also: test concentration or dose not given here
Conditions: with B13; scale: % of reporter cells activated
observedProperty: ratio to parent

In [3]: df
Out[3]:
    sequencechange  observed
 0     chain 5 K7E     0.113
 1     chain 5 N4P    0.0596
 2     chain 5 K7I      1.32
 3     chain 5 N4V    0.0342
 4     chain 5 S1W      1.35
 5     chain 5 F5N    0.0634
 6     chain 5 L8G      1.21
 7     chain 5 I2P     0.285
 8     chain 5 F5I    0.0887
 9     chain 5 I2H         1
10     chain 5 F5H     0.366
11     chain 5 N4Y    0.0196
12     chain 5 I2W      2.33
13     chain 5 I2K      1.84
14     chain 5 N4E     0.156
15     chain 5 I2A      1.04
16     chain 5 F5R    0.0811
17     chain 5 I2Y      2.07
18     chain 5 F5M     0.316
19     chain 5 N4I     0.179
20     chain 5 L8N         3
21     chain 5 I3M      5.23
22     chain 5 N4T    0.0378
23     chain 5 L8Y     0.812
24     chain 5 S1T     0.544
25     chain 5 I3A      4.66
26     chain 5 L8A     0.227
27     chain 5 I3T      1.56
28     chain 5 K7Y     0.195
29     chain 5 E6R     0.024
30     chain 5 E6C    0.0215
31     chain 5 K7Q     0.887
32     chain 5 I3W     0.293
33     chain 5 I3R      1.96
34     chain 5 I3D    0.0646
35     chain 5 I2Q     0.243
36     chain 5 I2E      0.75
37     chain 5 I2F      1.01
38     chain 5 F5A     0.131
39     chain 5 S1I     0.381
40     chain 5 E6G    0.0583
41     chain 5 F5S    0.0431
42     chain 5 E6H    0.0361
43     chain 5 S1A     0.835
44     chain 5 E6P     0.101
45     chain 5 K7R     0.987
46     chain 5 E6Q    0.0298
47     chain 5 K7A     0.722
48     chain 5 E6N    0.0224
49     chain 5 S1Y      0.11
50     chain 5 K7C      1.38
51     chain 5 F5T     0.195
52     chain 5 S1E     0.113
53     chain 5 K7D     0.108
54     chain 5 F5W    0.0204
55     chain 5 I2D     0.523
56     chain 5 K7F      1.21
57     chain 5 N4K    0.0279
58     chain 5 K7V      2.07
59     chain 5 I2L      1.48
60     chain 5 N4A     0.052
61     chain 5 F5P     0.144
62     chain 5 S1M      1.15
63     chain 5 I2S     0.848
64     chain 5 L8T     0.331
65     chain 5 F5G    0.0418
66     chain 5 N4L    0.0811
67     chain 5 K7T      1.03
68     chain 5 S1H    0.0963
69     chain 5 K7S      1.02
70     chain 5 N4W     0.025
71     chain 5 S1V     0.857
72     chain 5 F5Q    0.0482
73     chain 5 I3Y     0.117
74     chain 5 L8K      0.45
75     chain 5 S1C    0.0621
76     chain 5 I3Q      4.85
77     chain 5 N4S    0.0507
78     chain 5 E6D    0.0608
79     chain 5 E6F    0.0355
80     chain 5 E6V     0.038
81     chain 5 I3L      2.17
82     chain 5 I2C      1.49
83     chain 5 I2G     0.284
